system: 422866-222-R5-J1-PDC complex spheroid viability; assay: Anticancer human tumor 422866-222-R5-J1-PDC patient-derived pancreatic adenocarcinoma cell line growth inhibition [POLQ]; details: curve of first compound; second compound 0.316 µM
pIC50: −log10 of the molar value.
PROPERTY LABEL: pIC50

- MOLECULE: "CCc1c2c(nc3ccc(O)cc13)-c1cc3c(c(=O)n1C2)COC(=O)[C@]3(O)CC + Nc1ccc(C#CCN(C(=O)Cc2ncc(C(F)(F)F)cc2C(F)(F)F)c2ccc(F)cc2)nn1"
  ASSAY TARGET: "422866-222-R5-J1-PDC complex spheroid viability"
  PROPERTY LABEL: "pIC50"
  RESULT: "> 8.50"

Please supply pIC50 for each of the following items, keeping them in order.
1. CNCc1ccc(-c2[nH]c3cc(F)cc4c3c2CCNC4=O)cc1 + COC1C(OC(N)=O)C(O)C(Oc2ccc3c(O)c(NC(=O)c4ccc(O)c(CC=C(C)C)c4)c(=O)oc3c2C)OC1(C)C
2. CC1COCCN1c1cc(C2(O)CC3CCC(C2)O3)c2cnn(-c3ccn[nH]3)c2n1 (stereo not given) + COC1C(OC(N)=O)C(O)C(Oc2ccc3c(O)c(NC(=O)c4ccc(O)c(CC=C(C)C)c4)c(=O)oc3c2C)OC1(C)C
3. Cn1ncnc1[C@H]1c2n[nH]c(=O)c3cc(F)cc(c23)N[C@@H]1c1ccc(F)cc1 + Nc1ccc(C#CCN(C(=O)Cc2ncc(C(F)(F)F)cc2C(F)(F)F)c2ccc(F)cc2)nn1
4. CCc1c2c(nc3ccc(O)cc13)-c1cc3c(c(=O)n1C2)COC(=O)[C@]3(O)CC + Cc1cccc(N(C)C(=O)C2C(O)CCN2c2nc(C)cc(C(F)(F)F)c2C#N)c1

A.
["< 5.00", "> 7.50", "< 7.00", "> 8.50"]

---

tested on: 422866-222-R5-J1-PDC complex spheroid viability; assay: Anticancer human tumor 422866-222-R5-J1-PDC cell line growth inhibition [POLQ]; conditions: second compound 0.1 µM; first compound 1 µM; stronger effect = lower value;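 note: spheroids exposed to compounds for one week before readout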;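 for viability, T/C: percent of DMSO vehicle wells luminescence so 100% = untreated viability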
PROPERTY LABEL: viability, T/C (%)
Give bare numbers, in %.

- COMPOUND: "CCc1c2c(nc3ccc(O)cc13)-c1cc3c(c(=O)n1C2)COC(=O)[C@]3(O)CC + COC1C(OC(N)=O)C(O)C(Oc2ccc3c(O)c(NC(=O)c4ccc(O)c(CC=C(C)C)c4)c(=O)oc3c2C)OC1(C)C"
  PROPERTY LABEL: "viability, T/C"
  MEASURE UNIT: "%"
  MEASURED NUMBER: 18.6

Please supply viability, T/C for each of the following items, keeping them in order.
1. CCc1cc2c(N3CCc4c(cc(Cn5ccnc5)cc4-c4cn(C)nc4C(F)(F)F)C3=O)cc(C)nc2c(OC)n1 + Nc1ccc(C#CCN(C(=O)Cc2ncc(C(F)(F)F)cc2C(F)(F)F)c2ccc(F)cc2)nn1
2. O=C(Nc1ccc(O)c(NS(=O)(=O)c2ccc(F)cc2)c1)c1ccc(-c2ccccc2)cc1 + Cc1cccc(N(C)C(=O)C2C(O)CCN2c2nc(C)cc(C(F)(F)F)c2C#N)c1
3. O=c1[nH]cc(F)c(=O)[nH]1 + COC1C(OC(N)=O)C(O)C(Oc2ccc3c(O)c(NC(=O)c4ccc(O)c(CC=C(C)C)c4)c(=O)oc3c2C)OC1(C)C
4. CNCc1ccc(-c2[nH]c3cc(F)cc4c3c2CCNC4=O)cc1 + COC1C(OC(N)=O)C(O)C(Oc2ccc3c(O)c(NC(=O)c4ccc(O)c(CC=C(C)C)c4)c(=O)oc3c2C)OC1(C)C
5. COc1ccc([C@@H](O)c2cc(-c3ncnc4cc(N5CCOCC5)ccc34)c(F)cc2Cl)nn1 + COC1C(OC(N)=O)C(O)C(Oc2ccc3c(O)c(NC(=O)c4ccc(O)c(CC=C(C)C)c4)c(=O)oc3c2C)OC1(C)C

A.
1: 87.1; 2: 91.3; 3: 82.9; 4: 99.1; 5: 60

Please supply viability, T/C for each of the following items, keeping them in order.
1. CC1COCCN1c1cc(-c2ccnn2C)c2ccnc(-c3ccn[nH]3)c2n1 (stereo not given) + Cc1cccc(N(C)C(=O)C2C(O)CCN2c2nc(C)cc(C(F)(F)F)c2C#N)c1
2. Nc1ccn(C2OC(CO)C(O)C2(F)F)c(=O)n1 (stereo not given) + COC1C(OC(N)=O)C(O)C(Oc2ccc3c(O)c(NC(=O)c4ccc(O)c(CC=C(C)C)c4)c(=O)oc3c2C)OC1(C)C
3. O=C(c1cc(Cc2n[nH]c(=O)c3ccccc23)ccc1F)N1CCN(C(=O)C2CC2)CC1 + COC1C(OC(N)=O)C(O)C(Oc2ccc3c(O)c(NC(=O)c4ccc(O)c(CC=C(C)C)c4)c(=O)oc3c2C)OC1(C)C

A.
1. 44.5
2. 33.7
3. 35.4

Q. For O=C(Nc1ccc(O)c(NS(=O)(=O)c2ccc(F)cc2)c1)c1ccc(-c2ccccc2)cc1 + COC1C(OC(N)=O)C(O)C(Oc2ccc3c(O)c(NC(=O)c4ccc(O)c(CC=C(C)C)c4)c(=O)oc3c2C)OC1(C)C , what is its reported viability, T/C?
A. 95.2

---

system: 422866-222-R5-J1-PDC complex spheroid viability; assay: Anticancer human tumor 422866-222-R5-J1-PDC cell line growth inhibition [POLQ]; details: curve of first compound; second compound 0.316 µM;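 note: spheroids exposed to compounds for one week before readout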
PROPERTY LABEL: IC50

- COMPOUND: "CC1COCCN1c1cc(-c2ccnn2C)c2ccnc(-c3ccn[nH]3)c2n1 (stereo unspecified) + COC1C(OC(N)=O)C(O)C(Oc2ccc3c(O)c(NC(=O)c4ccc(O)c(CC=C(C)C)c4)c(=O)oc3c2C)OC1(C)C"
  IC50: "> 10 µM"
- COMPOUND: "O=c1[nH]cc(F)c(=O)[nH]1 + Nc1ccc(C#CCN(C(=O)Cc2ncc(C(F)(F)F)cc2C(F)(F)F)c2ccc(F)cc2)nn1"
  IC50: "> 10 µM"
- COMPOUND: "CC(C)n1c(=O)n(C)c2cnc3cc(F)c(-c4ccc(OCCCN5CCCCC5)nc4)cc3c21 + Cc1cccc(N(C)C(=O)C2C(O)CCN2c2nc(C)cc(C(F)(F)F)c2C#N)c1"
  IC50: "> 10 µM"
- COMPOUND: "CNCc1ccc(-c2[nH]c3cc(F)cc4c3c2CCNC4=O)cc1 + Nc1ccc(C#CCN(C(=O)Cc2ncc(C(F)(F)F)cc2C(F)(F)F)c2ccc(F)cc2)nn1"
  IC50: "> 10 µM"

Please supply IC50 for each of the following items, keeping them in order.
1. O=c1[nH]cc(F)c(=O)[nH]1 + Cc1cccc(N(C)C(=O)C2C(O)CCN2c2nc(C)cc(C(F)(F)F)c2C#N)c1
2. COc1ccc([C@@H](O)c2cc(-c3ncnc4cc(N5CCOCC5)ccc34)c(F)cc2Cl)nn1 + COC1C(OC(N)=O)C(O)C(Oc2ccc3c(O)c(NC(=O)c4ccc(O)c(CC=C(C)C)c4)c(=O)oc3c2C)OC1(C)C

A.
["> 10 µM", "2.19 µM"]

---

tested on: 422866-222-R5-J1-PDC complex spheroid viability; assay: Anticancer human tumor 422866-222-R5-J1-PDC cell line growth inhibition [POLQ]; settings: second compound 0.1 µM; first compound 0.01 µM; stronger effect = lower value;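 note: spheroids exposed to compounds for one week before readout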;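 for viability, T/C: percent of DMSO vehicle wells luminescence so 100% = untreated viability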
Please go through the items and note down their viability, T/C.
One number for each entry, in %.

Some solved entries appear below for comparison.
- MOLECULE: "C=CCn1c(=O)c2cnc(Nc3ccc(N4CCN(C)CC4)cc3)nc2n1-c1cccc(C(C)(C)O)n1 + Cc1cccc(N(C)C(=O)C2C(O)CCN2c2nc(C)cc(C(F)(F)F)c2C#N)c1"
  PROPERTY LABEL: "viability, T/C"
  MEASURED NUMBER: 93.8
- MOLECULE: "CC[C@@]1(O)C(=O)OCc2c1cc1n(c2=O)Cc2cc3c(CN(C)C)c(O)ccc3nc2-1 + Cc1cccc(N(C)C(=O)C2C(O)CCN2c2nc(C)cc(C(F)(F)F)c2C#N)c1"
  PROPERTY LABEL: "viability, T/C"
  MEASURED NUMBER: 62.6
- MOLECULE: "CCc1c2c(nc3ccc(O)cc13)-c1cc3c(c(=O)n1C2)COC(=O)[C@]3(O)CC + Nc1ccc(C#CCN(C(=O)Cc2ncc(C(F)(F)F)cc2C(F)(F)F)c2ccc(F)cc2)nn1"
  PROPERTY LABEL: "viability, T/C"
  MEASURED NUMBER: 37.8
- MOLECULE: "COc1cccc(OCCCN)c1-c1cc(Nc2cnc(C#N)cn2)n[nH]1 + Cc1cccc(N(C)C(=O)C2C(O)CCN2c2nc(C)cc(C(F)(F)F)c2C#N)c1"
  PROPERTY LABEL: "viability, T/C"
  MEASURED NUMBER: 37.7
- MOLECULE: "CCc1c2c(nc3ccc(O)cc13)-c1cc3c(c(=O)n1C2)COC(=O)[C@]3(O)CC + Cc1cccc(N(C)C(=O)C2C(O)CCN2c2nc(C)cc(C(F)(F)F)c2C#N)c1"
  PROPERTY LABEL: "viability, T/C"
  MEASURED NUMBER: 34.3

Please supply viability, T/C for each of the following items, keeping them in order.
1. Cn1ncnc1[C@H]1c2n[nH]c(=O)c3cc(F)cc(c23)N[C@@H]1c1ccc(F)cc1 + COC1C(OC(N)=O)C(O)C(Oc2ccc3c(O)c(NC(=O)c4ccc(O)c(CC=C(C)C)c4)c(=O)oc3c2C)OC1(C)C
2. COc1cccc(OCCCN)c1-c1cc(Nc2cnc(C#N)cn2)n[nH]1 + Nc1ccc(C#CCN(C(=O)Cc2ncc(C(F)(F)F)cc2C(F)(F)F)c2ccc(F)cc2)nn1
3. Cn1ncnc1[C@H]1c2n[nH]c(=O)c3cc(F)cc(c23)N[C@@H]1c1ccc(F)cc1 + Nc1ccc(C#CCN(C(=O)Cc2ncc(C(F)(F)F)cc2C(F)(F)F)c2ccc(F)cc2)nn1
4. C=CCn1c(=O)c2cnc(Nc3ccc(N4CCN(C)CC4)cc3)nc2n1-c1cccc(C(C)(C)O)n1 + COC1C(OC(N)=O)C(O)C(Oc2ccc3c(O)c(NC(=O)c4ccc(O)c(CC=C(C)C)c4)c(=O)oc3c2C)OC1(C)C

A.
87
45.9
85.2
105

Please supply viability, T/C for each of the following items, keeping them in order.
1. Cn1ncnc1[C@H]1c2n[nH]c(=O)c3cc(F)cc(c23)N[C@@H]1c1ccc(F)cc1 + Cc1cccc(N(C)C(=O)C2C(O)CCN2c2nc(C)cc(C(F)(F)F)c2C#N)c1
2. C=CCn1c(=O)c2cnc(Nc3ccc(N4CCN(C)CC4)cc3)nc2n1-c1cccc(C(C)(C)O)n1 + Nc1ccc(C#CCN(C(=O)Cc2ncc(C(F)(F)F)cc2C(F)(F)F)c2ccc(F)cc2)nn1

A.
[93.2, 102]

All values here come from PubChem BioAssay AID1963844.
